The following sequences are shown together with reported Kd values.
Target: HLA-B*44:02
Experiment: IEDB peptide-MHC binding, purified MHC/competitive/fluorescence; filed as Kd, often an IC50 or EC50 that approximates it; bounds were set here for any values at or beyond the usual limits of such assays
Conditions: source organism: Plasmodium falciparum 3D7
experimentalEndpoint: Kd

• YESQLGGKI = ≥ 66.3 µM
• MENEDVEFI = ≥ 36.9 µM
• FDNSGISLL = ≥ 1000 µM
• KEEKEINDEY = ≥ 1000 µM
• ASFSASTGY = ≥ 31.7 µM
• TEMFKLRLNL = ≥ 54.8 µM
• DDTFEVYSEY = ≥ 1000 µM
• SESTSTYNT = ≥ 103 µM
• RLNLFCFSFL = ≥ 421 µM

----------
Molecular target: HLA-A*03:01
Assay: IEDB peptide-MHC binding, purified MHC/competitive/fluorescence; filed as Kd, often an IC50 or EC50 that approximates it; bounds were set here for any values at or beyond the usual limits of such assays
Conditions: source organism: Plasmodium falciparum 3D7
pKd: −log10 of the molar value.
Tag: True if measured pKd is not below 6, False if it is.

* RLNLFCFSFL | False
* RISGWKGDNK | True
* RLNNRSIYK | True
* MDFPKLLNK | False
* RSSGSTFSIK | True
* NLNLCGKYTK | False
* ITNKNKVTIY | False
* TMANQNMNYK | True

----------
Biological target: HLA-A*03:01
Experiment: IEDB peptide-MHC binding, purified MHC/competitive/fluorescence; filed as Kd, often an IC50 or EC50 that approximates it; bounds were set here for any values at or beyond the usual limits of such assays
Conditions: source organism: Plasmodium falciparum 3D7
pKd: −log10 of the molar value.
Tag: yes (1) if measured pKd is not below 6, no (0) if it is.

* ASFSASTGY | no (0)
* FIDPQTEMFK | no (0)
* ILISRLTLK | yes (1)
* RSKKTFLVK | yes (1)
* SIASKNLMWV | no (0)
* FCFSFLKSSK | no (0)
* KNYDNYNMK | no (0)
* KTCKYYCFK | no (0)
* STDIIFLTMK | no (0)
* TTFFESVSY | no (0)
* DTFEVYSEY | no (0)
* LTMKMINNK | yes (1)
* QVFDYPIEK | no (0)

----------
Biological target: HLA-A*24:02
Test: IEDB peptide-MHC binding, purified MHC/competitive/fluorescence; filed as Kd, often an IC50 or EC50 that approximates it; bounds were set here for any values at or beyond the usual limits of such assays
Settings: source organism: Plasmodium falciparum 3D7
experimentalEndpoint: Kd

* KMKSDQYPI | 6.9 µM
* SHPKYRNFKF | 16.6 µM
* YGKGGFQFVF | 0.231 µM
* MYHNKEFDF | 4.51 µM
* YYPIIRKQF | 0.101 µM
* KLPPLLNEI | 0.0887 µM
* IYGKGGFQF | 0.163 µM
* LFGDENFSF | 5.87 µM
* YTIGLPPYI | 6.57 µM
* TEMFKLRLNL | ≥ 58.2 µM
* NYKQNNFPF | 9.49 µM
* RLNLFCFSF | 11 µM
* NMNYKQNNF | 14.7 µM
* KYDPRISGW | 5.01 µM
* HPFLKSGFTF | 10.5 µM
* SLTHKYNEF | 12.6 µM
* IWYKYTESDF | 1.12 µM
* NYNNDQYNI | 6.54 µM
* EWLKTCKYYC | ≥ 578 µM
* HYGINPVQL | 6.79 µM
* TYSIYTNFKN | ≥ 26.6 µM
* HYNTYKNRVF | 3 µM
* PFLKSGFTF | 8.32 µM

----------
The following sequences are shown together with reported pKd values.
Target: HLA-B*07:02
Test: IEDB peptide-MHC binding, purified MHC/competitive/fluorescence; filed as Kd, often an IC50 or EC50 that approximates it; bounds were set here for any values at or beyond the usual limits of such assays
Details: source organism: Plasmodium falciparum 3D7
pKd: −log10 of the molar value.
experimentalEndpoint: pKd

- LPIEPKKLA: ≤ 3.25
- KPNFWRFQDY: ≤ 3.00
- HPMPINIKL: 6.77
- HPKYRNFKF: 6.47
- KLYSINSKSI: ≤ 3.65
- TIYGKGGFQF: ≤ 3.96
- IPPQVFDYPI: ≤ 3.61
- SIASKNLMWV: ≤ 3.00
- HPFLKSGFTF: 6.65
- LLNSDRRDL: 6.70
- NPVQLKSKF: ≤ 4.22
- TEMFKLRLNL: ≤ 3.00
- FPPNTFDAL: 5.56
- YPIEKLGHV: 6.59
- RNIISKHTSV: ≤ 3.30
- SPHDTMQKDD: ≤ 3.00
- FPKLLNKPSL: ≤ 4.14

----------
The following sequences are shown together with reported pKd values.
Biological target: HLA-A*01:01
Assay: IEDB peptide-MHC binding, purified MHC/competitive/fluorescence; filed as Kd, often an IC50 or EC50 that approximates it; bounds were set here for any values at or beyond the usual limits of such assays
Conditions: source organism: Plasmodium falciparum 3D7
pKd: −log10 of the molar value.
experimentalEndpoint: pKd

- NTFDALYYV: ≤ 3.00
- CRDKTSALY: ≤ 3.00
- NNNFRNNMY: ≤ 3.00
- TMANQNMNY: 5.70
- DSDDLKESY: 5.58
- TSKQGSSNKY: ≤ 3.00
- NSPNVNKRY: ≤ 3.00
- SSANDEQSY: ≤ 4.19
- TTFFESVSY: ≤ 3.47
- FLENFNFPL: ≤ 3.00
- LSSNIENIY: ≤ 4.53
- LISRLTLKY: 4.94
- NSDKLDLIY: 6.06
- FIDPQTEMFK: ≤ 4.33
- STDIIFLTMK: ≤ 3.00
- ITNKNKVTIY: ≤ 3.00
- ASFSASTGY: ≤ 3.00
- LTHKYNEFV: ≤ 3.76
- KEDDTFEVY: ≤ 3.00
- NTVKCPNDY: ≤ 3.55
- FTNVNQFFK: ≤ 3.00
- DDTFEVYSEY: ≤ 3.00
- DTFEVYSEY: ≤ 3.00

----------
Target: HLA-A*02:01
Experiment: IEDB peptide-MHC binding, purified MHC/competitive/fluorescence; filed as Kd, often an IC50 or EC50 that approximates it; bounds were set here for any values at or beyond the usual limits of such assays
Conditions: source organism: Plasmodium falciparum 3D7
pKd: −log10 of the molar value.
experimentalEndpoint: pKd

- VIHYGINPV: 5.77
- FLLNLLNEHV: 5.77
- KLPPLLNEI: 5.57
- LISTDIIFL: 6.21
- GIANDLSTL: 5.24
- SMTNIPMNV: 6.61
- NLFEWSKTV: 5.79
- KMKSDQYPI: 5.51
- WLNNDIYNV: 6.80
- LLFQKAANL: 5.73
- NTFDALYYV: 5.06
- ILYKNIDCV: 5.85
- FLENFNFPL: 5.43
- YTIGLPPYI: 5.61
- LTHKYNEFV: 5.62

----------
The following sequences are shown together with reported Kd values.
Molecular target: HLA-B*44:02
Assay: IEDB peptide-MHC binding, purified MHC/competitive/fluorescence; filed as Kd, often an IC50 or EC50 that approximates it; bounds were set here for any values at or beyond the usual limits of such assays
Details: source organism: Plasmodium falciparum 3D7
experimentalEndpoint: Kd

• DENLKAIQI = ≥ 91.3 µM
• SKHPFLKSGF = ≥ 1000 µM
• HPFLKSGFTF = ≥ 1000 µM
• AEISRNDLI = 4.53 µM
• NEEIIDLLNL = ≥ 433 µM
• SILISRLTL = ≥ 1000 µM
• EENLFEWSKT = ≥ 1000 µM
• IENNLYERL = ≥ 60.1 µM
• NENNTTYQY = 18.4 µM
• RLNLFCFSF = ≥ 1000 µM
• TEYFKNKNM = ≥ 31.4 µM

----------
The following sequences are shown together with reported pKd values.
Target: HLA-A*03:01
Test: IEDB peptide-MHC binding, purified MHC/competitive/fluorescence; filed as Kd, often an IC50 or EC50 that approximates it; bounds were set here for any values at or beyond the usual limits of such assays
Settings: source organism: Plasmodium falciparum 3D7
pKd: −log10 of the molar value.
experimentalEndpoint: pKd

* ALNLFFQNK | 5.94
* GLSPHDTMQK | 5.96
* FTNVNQFFK | 6.04

----------
Biological target: HLA-A*02:01
Assay: IEDB peptide-MHC binding, purified MHC/competitive/fluorescence; filed as Kd, often an IC50 or EC50 that approximates it; bounds were set here for any values at or beyond the usual limits of such assays
Conditions: source organism: Plasmodium falciparum 3D7
pKd: −log10 of the molar value.
The following sequences are shown together with reported pKd values.
experimentalEndpoint: pKd

• NLFFQNKSI = ≤ 3.00
• SISDYTKSL = ≤ 3.45
• SIASKNLMWV = ≤ 3.55
• KLYSINSKSI = ≤ 4.24
• NMYQQNIPL = ≤ 3.48
• FDNSGISLL = ≤ 3.64
• RLNLFCFSFL = ≤ 3.79
• YITNKNKVTI = ≤ 3.00
• SLTHKYNEFV = ≤ 3.74
